Values were extracted from PubChem BioAssay.

# Assay name: inhibitors of TNFa-induced NFkB p65 translocation, primary screen, imaging, HUVEC, MLSMR starter and 10KST1 sets (AID 438);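 further: compound added about 3h40 before a 20 min TNFalpha stimulation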
# Details: HUVEC TNFa-induced p65 nuclear translocation; measured here: nuclei count (cytotoxicity indicator), at 2.08 µM
Binary call on cell count: true from 400 upward, false beneath that.

compound="CC(CCc1ccccc1)NCc1ccncc1 (stereo unspecified)" label_value=true
compound="CC(=O)NC(Cc1cc(C)ccc1C)C(=O)N1CCN(C(=O)Nc2ccc(C(C)=O)cc2)CC1 (stereo unspecified)" label_value=false
compound=COc1cccc(NC(=O)c2ccco2)c1 label_value=true
compound=Cc1ccc2nc(-c3ccccn3)cc(C(=O)N3CCN(c4ncccn4)CC3)c2c1 label_value=false
compound=CN(C)S(=O)(=O)c1ccc2c(c1)c(=O)c(C(=O)NCCCN1CCCCCC1)cn2C label_value=true
compound=N#Cc1c2n(c(=S)n(-c3ccccn3)c1=O)CCCCC2 label_value=true
compound="CC(NC(=O)Cc1cccs1)c1ccc2c(c1)OCO2 (stereo unspecified)" label_value=false
compound="CCOC(=O)C1=C(C)Nc2nnnn2C1c1ccc(OC)c(Br)c1 (stereo unspecified)" label_value=true
compound=Cc1c(NC(=O)Cn2nc(C(=O)O)c3ccccc3c2=O)c(=O)n(-c2ccccc2)n1C label_value=true
